Test system: Plasma
Assay: Fraction unbound in rat plasma by equilibrium dialysis
Assay type: ADME, cell-free
propertyName: Fu (%)
Report the figure in % without appending any unit label.

These recorded examples may help you get a feel for the data.
>>> print(df.to_string())
                                   compound  propertyname  recordednumber
0  O=C(Nc1ccc(N2C(=O)CC3(CCCCC3)C2=O)c(Cl)c1)c1ccccn1            Fu             0.5
1  O=C(Nc1ccc(N2C(=O)[C@@H]3[C@H](C2=O)[C@@H]2C=C[C@H]3C2)c(Cl)c1)c1ccccn1 (mixture of isomers)            Fu             3.2
2  O=C(Nc1ccc(N2S(=O)(=O)c3ccccc3S2(=O)=O)cc1)c1ccccn1            Fu             3.8

Let us examine a further case.
Sample O=C(Nc1ccc(N2C(=O)CC(c3ccccc3)C2=O)c(Cl)c1)c1ccccn1 (racemic) — what was its Fu?
0.17
